Recorded pIC50 values for a group of compounds are listed next.
Biological target: PD-1/PD-L1 interaction (Homo sapiens, UniProt Q9NZQ7)
Sequence (Q9NZQ7 19-290): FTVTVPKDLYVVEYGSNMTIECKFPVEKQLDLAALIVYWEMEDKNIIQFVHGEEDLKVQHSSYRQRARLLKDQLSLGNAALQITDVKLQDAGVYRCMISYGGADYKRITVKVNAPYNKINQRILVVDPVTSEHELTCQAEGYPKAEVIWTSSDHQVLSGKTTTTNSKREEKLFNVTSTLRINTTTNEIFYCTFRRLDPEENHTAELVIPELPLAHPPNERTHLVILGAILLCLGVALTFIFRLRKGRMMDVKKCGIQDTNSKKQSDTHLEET
Test: PD-1/PD-L1 blockage cell-based bioassay (Jurkat NFAT luciferase / CHO-PDL1 co-culture)
Settings: Jurkat NFAT cells co-cultured with CHO-PDL1 cells, 6 h, luminescence
pIC50: −log10 of the molar value.

COc1cc(-n2ncc3c(-c4cccc(-c5ccc(CN6CC7(CNC(=O)C7)C6)c(OC)n5)c4Cl)cccc32)cc(OC)c1CN1CC(C(=O)O)C1 = > 6.70
COc1cc(-n2ncc3c(-c4cccc(-c5ccc(CN6CC7(CNC(=O)C7)C6)c(OC)n5)c4Cl)cccc32)ncc1CNC[C@@H]1CCC(=O)N1 = > 6.70
COc1cc(-n2ncc3c(-c4cccc(-c5ccc(CN[C@H]6C[C@@H](O)C6)c(OC)n5)c4Cl)cccc32)ncc1CN[C@H](CO)C(=O)O = 5.70 to 6.70

Input: What pIC50 appears in the records for this compound with PD-1/PD-L1 interaction (Homo sapiens, UniProt Q9NZQ7)? "COc1cc(-c2cn(C)c3c(-c4cccc(-c5ccc(CNC[C@@H]6CCC(=O)N6)c(OC)n5)c4Cl)cccc23)cc(OC)c1CNC[C@@H]1CCC(=O)N1"
Output: < 5.70

Input: Next: "COc1cc(-n2ncc3c(-c4cccc(-c5ccc(CN6CC7(CNC(=O)C7)C6)c(OC)n5)c4Cl)cccc32)ncc1CNCCO"
Output: > 6.70

Input: Next: "COc1cc(N2CCc3c(-c4cccc(-c5nc6c(s5)CNCC6)c4C)cccc32)cc(OC)c1CNC[C@@H]1CCC(=O)N1"
Output: < 5.70

Input: Next: "COc1cc(-n2ncc3c(-c4cccc(-c5ccc(CN6CC(C(C)(C)O)C6)c(OC)n5)c4Cl)cccc32)ncc1CNCCO"
Output: > 6.70

Input: Next: "COc1cc(-n2ncc3c(-c4cccc(-c5ccc(C6=NCCN6)c(OC)n5)c4Cl)cccc32)cc(OC)c1CNC[C@H]1C[C@@H](O)C1"
Output: 5.70 to 6.70

Ref: patent US20240336601A1
